Reported IC50 values are given for each entry in this list.
- Test system: Liver
- Test description: Antioxidant activity in heat-inactivated Fischer-344 rat hepatic microsomes assessed as protection against Fe2+/ascorbate-induced lipid peroxidation after 45 mins by TBAR-based spectrophotometry
- Type: functional, microsome
- Cond: Fischer-344, Liver, 0.75 h
Could you give me the number in µM? Just the number is fine.

Some entries whose results are on file:
- Molecule: "CN1CC(O)(c2ccc(-c3cc(C(C)(C)C)c(O)c(C(C)(C)C)c3)cc2)OC2CCCCC21 (stereo not given)"
  IC50 [µM]: 5.9
- Molecule: "CN1CC(O)(c2ccc(-c3ccccc3)cc2)OC2CCCCC21 (stereo not given)"
  IC50 [µM]: 450
- Molecule: "CN1CC(O)(c2ccc(-c3ccccc3)cc2)Oc2ccc(-c3ccccc3)cc21 (stereo not given)"
  IC50 [µM]: 4.9

Given CN1CC(O)(c2ccc(-c3ccc(O)cc3)cc2)Sc2ccccc21 (stereo not given) , state its recorded IC50.
15
